assay: Therapeutic index, ratio of […] for Sprague-Dawley rat by rotarod test to HD50 for hypnotic activity in iv dosed Sprague-Dawley rat; type: organism-based; details: in vivo, read-out: TI
# selectivity ratio listing for each entry below
Returns: the value as a bare number; no unit string appended.

Here is how some compounds turned out for selectivity ratio.
| compound | metric | reported |
| --- | --- | --- |
| CCOC(=O)Cc1cc(OC)c(OCC(=O)N(CC)CC)cc1F | selectivity ratio | 11.3 |
| CCN(CC)C(=O)COc1ccc(CC(=O)OCC(F)(F)F)c(F)c1OC | selectivity ratio | 8.1 |
| CCOc1cc(CC(=O)OC(C)C(F)(F)F)cc(F)c1OCC(=O)N(CC)CC (stereo unspecified) | selectivity ratio | 9.9 |
| CCCCOC(=O)Cc1cc(OCC)c(OCC(=O)N(CC)CC)cc1F | selectivity ratio | 11.2 |
| CCOc1cc(CC(=O)OC(C)C)cc(F)c1OCC(=O)N(CC)CC | selectivity ratio | 13.1 |

We next turn to a different compound, shown below.
Give the reported value of selectivity ratio for this record: CCCOC(=O)Cc1cc(F)c(OCC(=O)N(CC)CC)c(OC)c1
11.2

----------
assay: Therapeutic index, ratio of […] for Sprague-Dawley rat by rotarod test to HD50 for hypnotic activity in iv dosed Sprague-Dawley rat; assay type: organism-based; conditions: in vivo, read-out: TI
Binning scheme for selectivity ratio: low: < 9; mid: ≥ 9 and < 10; high: ≥ 10

Example cases with answers are listed next.
| compound | label class |
| --- | --- |
| CCN(CC)C(=O)COc1c(F)cc(CC(=O)OC(C)C)cc1OC | high |
| CCN(CC)C(=O)COc1ccc(CC(=O)OC(C)C)c(F)c1OC | low |
| CCN(CC)C(=O)COc1ccc(CC(=O)OC(C)C(F)(F)F)c(F)c1OC (stereo not given) | low |
| CCOc1c(OCC(=O)N(CC)CC)ccc(CC(=O)OCC(F)(F)F)c1F | low |
| CC(C)c1cccc(C(C)C)c1O [PROPOFOL] | low |
| CCCOc1cc(CC(=O)OC(C)C)c(F)cc1OCC(=O)N(CC)CC | mid |
| CCOC(=O)Cc1cc(F)c(OCC(=O)N(CC)CC)c(OC)c1 | high |
| CCCOC(=O)Cc1ccc(OCC(=O)N(CC)CC)c(OC)c1 [PROPANIDID] | mid |
| CCCOC(=O)Cc1cc(OC)c(OCC(=O)N(CC)CC)cc1F | high |
| CCN(CC)C(=O)COc1cc(F)c(CC(=O)OC(C)C)cc1OC | high |

Please look at the following compound next.
Using the reported selectivity ratio, which band applies to CCCOC(=O)Cc1cc(OCC)c(OCC(=O)N(CC)CC)cc1F ?
high

----------
experiment: Therapeutic index, ratio of […] for Sprague-Dawley rat by rotarod test to HD50 for hypnotic activity in iv dosed Sprague-Dawley rat; type: organism-based; settings: in vivo, read-out: TI
# selectivity ratio listing for each entry below
Returns: the value as a bare number; no unit string appended.

| compound | metric | reported |
| --- | --- | --- |
| CCCOC(=O)Cc1ccc(OCC(=O)N(CC)CC)c(OCC)c1 [AZD-3043] | selectivity ratio | 10.1 |
| CCOC(=O)Cc1ccc(OCC(=O)N(CC)CC)c(OCC)c1F | selectivity ratio | 10.1 |
| CCN(CC)C(=O)COc1c(F)cc(CC(=O)OCC(F)(F)F)cc1OC | selectivity ratio | 9.8 |
| CCOc1c(OCC(=O)N(CC)CC)ccc(CC(=O)OC(C)C)c1F | selectivity ratio | 9.2 |
| CCN(CC)C(=O)COc1cc(F)c(CC(=O)OCC(F)(F)F)cc1OC | selectivity ratio | 9.3 |
| CCOc1cc(CC(=O)OC(C)C)c(F)cc1OCC(=O)N(CC)CC | selectivity ratio | 12.7 |

Give the reported value of selectivity ratio for this record: CCOC(=O)Cc1cc(OCC)c(OCC(=O)N(CC)CC)cc1F
14.4

Give the reported value of selectivity ratio for this record: CCCOC(=O)Cc1ccc(OCC(=O)N(CC)CC)c(OC)c1F
8.7

Give the reported value of selectivity ratio for this record: CCOC(=O)Cc1cc(F)c(OCC(=O)N(CC)CC)c(OCC)c1
12.1

Give the reported value of selectivity ratio for this record: CCOc1cc(CC(=O)OCC(F)(F)F)c(F)cc1OCC(=O)N(CC)CC
11.5

Give the reported value of selectivity ratio for this record: CCOc1c(OCC(=O)N(CC)CC)ccc(CC(=O)OC(C)C(F)(F)F)c1F (centres undefined)
7.4

Give the reported value of selectivity ratio for this record: CCN(CC)C(=O)COc1c(F)cc(CC(=O)OC(C)C(F)(F)F)cc1OC (centres undefined)
9.6

----------
test: Therapeutic index, ratio of […] for Sprague-Dawley rat by rotarod test to HD50 for hypnotic activity in iv dosed Sprague-Dawley rat; format: organism-based; details: in vivo, read-out: TI
metric: selectivity ratio
Returns: the value as a bare number; no unit string appended.

Give the reported value of selectivity ratio for this record: CCOc1cc(CC(=O)OC(C)C(F)(F)F)c(F)cc1OCC(=O)N(CC)CC (configuration not stated)
10.7

Give the reported value of selectivity ratio for this record: CCCOC(=O)Cc1cc(F)c(OCC(=O)N(CC)CC)c(OCC)c1
11.8

Give the reported value of selectivity ratio for this record: CCN(CC)C(=O)COc1cc(F)c(CC(=O)OC(C)C(F)(F)F)cc1OC (configuration not stated)
9.7

Give the reported value of selectivity ratio for this record: CCOc1cc(CC(=O)OC(C)CC)c(F)cc1OCC(=O)N(CC)CC (configuration not stated)
10.8

Give the reported value of selectivity ratio for this record: CCOC(=O)Cc1ccc(OCC(=O)N(CC)CC)c(OC)c1F
9.3

Give the reported value of selectivity ratio for this record: CCOc1cc(CC(=O)OCC(F)(F)F)cc(F)c1OCC(=O)N(CC)CC
8.7

Give the reported value of selectivity ratio for this record: CCCOC(=O)Cc1ccc(OCC(=O)N(CC)CC)c(OCC)c1F
10.4

Hey, just so you know, these numbers are from ChEMBL document CHEMBL3351378.
